SYSTEM_NAME: Glucocorticoid Receptor (Homo sapiens)
Construct: expressed in transfected cells
PROTOCOL_TEXT: Agonistic mode of action on the glucocorticoid receptor (CHO-Gal4/GR luciferase reporter cell line)
Assay type: cell-based
CONDITION_DETAILS: CHO-Gal4/GR luciferase reporter cells; observed in the agonistic assay or the antagonistic assay (mode not given); read-out: IC50 or EC50 range
QUANTITY: IC50 or EC50 (antagonist or agonist mode, not stated per compound)

>>> df
                           structure_smiles          result
0  CCS(=O)(=O)n1ccc2c(-c3cc(F)c4c(c3NC)-n3c(C)nnc3C(C)(C)N4)cc(F)cc21  100 to 1000 nM
1  Cc1c(-c2cc(F)cc3c2ccn3CCO)c(F)c(F)c2c1-n1c(C)nnc1C(C)(C)N2  100 to 1000 nM
2  CNc1c(-c2cc(F)cc3c2ccn3CCO)cc(F)c2c1-n1c(C)nnc1C(C)(C)N2  100 to 1000 nM
3  Cc1c(-c2cccc3c2ccn3CCO)cc(F)c2c1-n1c(C)nnc1C(C)(C)N2  100 to 1000 nM

* * *

SYSTEM_NAME: Glucocorticoid Receptor (Homo sapiens, UniProt P04150)
Construct: expressed in transfected cells
Sequence (P04150 524-758 limits assumed): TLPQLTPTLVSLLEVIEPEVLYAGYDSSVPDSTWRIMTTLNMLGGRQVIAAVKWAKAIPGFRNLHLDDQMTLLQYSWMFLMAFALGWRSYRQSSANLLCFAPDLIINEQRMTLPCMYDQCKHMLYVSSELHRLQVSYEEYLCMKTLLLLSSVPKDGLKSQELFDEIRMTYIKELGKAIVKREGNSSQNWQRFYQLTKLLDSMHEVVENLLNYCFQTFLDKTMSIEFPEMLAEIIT
PROTOCOL_TEXT: Agonistic mode of action on the glucocorticoid receptor (CHO-Gal4/GR luciferase reporter cell line)
Assay type: cell-based
CONDITION_DETAILS: CHO-Gal4/GR luciferase reporter cells; observed in the agonistic assay or the antagonistic assay (mode not given); read-out: IC50 or EC50 range
QUANTITY: IC50 or EC50 (antagonist or agonist mode, not stated per compound)

>>> print(df.to_string())
                           structure_smiles          result
0  Cc1c(-c2cc(C(F)(F)F)cc3[nH]ncc23)cc(F)c2c1-n1c(C)nnc1C(C)(C)N2  100 to 1000 nM
1  Cc1c(-c2cc(F)cc3c(C)c[nH]c23)c(F)c(F)c2c1-n1c(C)nnc1C(C)(C)N2        < 100 nM
2  Cc1c(-c2cc(F)cc3c(C)c[nH]c23)cc(Cl)c2c1-n1c(C)nnc1C(C)(C)N2        < 100 nM
3  CCc1c(-c2cc(F)cc3c2ccn3S(C)(=O)=O)cc(F)c2c1-n1c(C)nnc1C(C)(C)N2        < 100 nM

* * *

SYSTEM_NAME: Glucocorticoid Receptor (Homo sapiens, UniProt P04150)
Construct: expressed in transfected cells
PROTOCOL_TEXT: Agonistic mode of action on the glucocorticoid receptor (CHO-Gal4/GR luciferase reporter cell line)
Format: cell-based
CONDITION_DETAILS: CHO-Gal4/GR luciferase reporter cells; observed in the agonistic assay or the antagonistic assay (mode not given); read-out: IC50 or EC50 range
QUANTITY: IC50 or EC50 (antagonist or agonist mode, not stated per compound)

                            structure_smiles       result
 0  Cc1c(-c2cccc3c2cnn3S(C)(=O)=O)c(F)c(F)c2c1-n1c(C)nnc1C(C)(C)N2  0.1 to 1 µM
 1  COc1c(-c2cc(F)cc3[nH]ccc23)cc(F)c2c1-n1c(C)nnc1C(C)(C)N2  0.1 to 1 µM
 2  COc1c(-c2cc(F)cc3c2ccn3CC(F)F)cc(F)c2c1-n1c(C)nnc1C(C)(C)N2  0.1 to 1 µM
 3  COc1c(-c2cc(F)cc3c2ccn3S(C)(=O)=O)cc(F)c2c1-n1c(C3CC3)nnc1C(C)(C)N2   1 to 15 µM
 4  Cc1nnc2n1-c1c(c(F)c(F)c(-c3cc(F)cc4c3cnn4S(C)(=O)=O)c1C(F)(F)F)NC2(C)C  0.1 to 1 µM
 5  Cc1nnc2n1-c1c(C#N)c(-c3cccc4c3ccn4C3CC3)cc(F)c1NC2(C)C     < 0.1 µM
 6  COc1c(-c2cccc3c2ccn3S(C)(=O)=O)cc(F)c2c1-n1c(C)nnc1C(C)(C)N2  0.1 to 1 µM
 7  Cc1c(-c2cc(F)cc3c2ccn3S(=O)(=O)CC2CC2)cc(F)c2c1-n1c(C)nnc1C(C)(C)N2     < 0.1 µM
 8  COCCn1ccc2c(-c3cc(F)c4c(c3OC)-n3c(C)nnc3C(C)(C)N4)cc(F)cc21  0.1 to 1 µM
 9  Cc1c(-c2cc(F)cc3c2ccn3C)c(F)c(F)c2c1-n1c(C)nnc1C(C)(C)N2     < 0.1 µM
10  Cc1c(-c2cc(F)cc3c(C)c[nH]c23)cc(F)c2c1-n1c(C3CC3)nnc1C(C)(C)N2  0.1 to 1 µM
11  COc1c(-c2cc(C(F)(F)F)cc3c2ccn3S(C)(=O)=O)cc(F)c2c1-n1c(C)nnc1C(C)(C)N2  0.1 to 1 µM
12  Cc1c(-c2cc(F)cc3c(C)c[nH]c23)c(F)c(Cl)c2c1-n1c(C)nnc1C(C)(C)N2  0.1 to 1 µM
13  Cc1c(-c2cc(F)cc3c(C)c[nH]c23)c(Cl)c(F)c2c1-n1c(C)nnc1C(C)(C)N2     < 0.1 µM
14  Cc1c(-c2cc(F)cc3c2cnn3S(C)(=O)=O)c(F)c(Cl)c2c1-n1c(C)nnc1C(C)(C)N2     < 0.1 µM
15  Cc1c(-c2cc(F)cc3c2ccn3CCO)cc(Cl)c2c1-n1c(C)nnc1C(C)(C)N2     < 0.1 µM
16  CCc1nnc2n1-c1c(C)c(-c3cc(F)cc4c(C)c[nH]c34)cc(F)c1NC2(C)C  0.1 to 1 µM
17  Cc1nnc2n1-c1c(c(F)cc(-c3cccc4c3ccn4S(C)(=O)=O)c1C1CC1)NC2(C)C  0.1 to 1 µM
18  Cc1nnc2n1-c1c(c(F)cc(-c3cc(F)cc4c3ccn4S(C)(=O)=O)c1C1CC1)NC2(C)C     < 0.1 µM
19  CCS(=O)(=O)n1ccc2c(-c3cc(F)c4c(c3C(F)F)-n3c(C)nnc3C(C)(C)N4)cc(F)cc21     < 0.1 µM
20  COc1c(-c2cccc3c2ccn3C2CC2)cc(F)c2c1-n1c(C)nnc1C(C)(C)N2  0.1 to 1 µM
21  Cc1c(-c2cc(C#N)cc3[nH]ccc23)cc(F)c2c1-n1c(C)nnc1C(C)(C)N2  0.1 to 1 µM
22  CCc1nnc2n1-c1c(C)c(-c3cccc4c3ccn4S(C)(=O)=O)cc(F)c1NC2(C)C     < 0.1 µM
23  Cc1c[nH]c2c(-c3cc(F)c4c(c3C3CC3)-n3c(C)nnc3C(C)(C)N4)cccc12  0.1 to 1 µM
24  Cc1c(-c2cccc3c2ccn3S(=O)(=O)C(C)C)cc(F)c2c1-n1c(C)nnc1C(C)(C)N2   1 to 15 µM
25  CCS(=O)(=O)n1ccc2c(-c3cc(F)c4c(c3C(F)F)-n3c(C)nnc3C(C)(C)N4)cccc21  0.1 to 1 µM
26  COc1c(-c2cccc3[nH]ccc23)cc(F)c2c1-n1c(C)nnc1C(C)(C)N2  0.1 to 1 µM
27  COc1c(-c2cc(F)cc3[nH]ncc23)cc(F)c2c1-n1c(C)nnc1C(C)(C)N2  0.1 to 1 µM
28  CCS(=O)(=O)n1ccc2c(-c3c(C)c4c(c(F)c3F)NC(C)(C)c3nnc(C)n3-4)cc(F)cc21     < 0.1 µM
29  Cc1c(-c2cc(F)cc3c2ccn3S(C)(=O)=O)cc(F)c2c1-n1c(C3CC3)nnc1C(C)(C)N2  0.1 to 1 µM

Numbers sourced from patent US11981677B2.
